The reported measurements were obtained from the RNAGym collection of RNA variant scans (doi:10.1021/acssynbio.7b00057).

# Lookup of reported aptazyme ON/OFF ratio keyed by entry
B1: Pistol ribozyme (parent)
chain: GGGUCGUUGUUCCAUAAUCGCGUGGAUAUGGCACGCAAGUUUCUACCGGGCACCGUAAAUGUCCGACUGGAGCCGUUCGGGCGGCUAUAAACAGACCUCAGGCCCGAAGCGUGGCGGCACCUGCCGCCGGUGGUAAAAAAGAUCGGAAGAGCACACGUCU

# Variants of: B1
# Procedure Text: aptazyme ON/OFF ratio, guanine; higher = stronger switching; co-transcriptional cleavage with and without guanine
Provide a numeric answer; units are not to be included.

// worked examples, aptazyme ON/OFF ratio included
Record request: aptazyme ON/OFF ratio value, item G9U U10G U11G C12U
1.33

Record request: aptazyme ON/OFF ratio value, item U7G U8A G9U U10A U11A C12A
1.08

Record request: aptazyme ON/OFF ratio value, item U7C U8C G9C U10G U11A C12U
1.15

More entries:
Record request: aptazyme ON/OFF ratio value, item U7A U8G G9A U10C U11A C12A
1.24

Record request: aptazyme ON/OFF ratio value, item U7A U8C G9U U11C C12G C13G
1.05
